# Test system: SF-539 CNS
# method: NCI-60 one-dose screen, 48 h
# assay-context: 10 µM unless noted
This is part of a sample that, as a whole, favours compounds with a hit. Of some 83,000 tested, about 20% had one in any assay. Calls of active or inactive are those of the source. The calls were made as follows: active = growth percent below 10; inactive = the rest.
Labels: 1.0 (active), 0.0 (inactive)

INSERT INTO assay_data (compound, class_assignment) VALUES
  ('COC(=O)/C(CCC=C(C)C)=C1\[C@@H](OC(C)=O)C[C@@]2(C)[C@H]1CC(=O)[C@H]1[C@@]3(C)CCC(N4CCCC4)[C@@H](C)[C@@H]3CC[C@@]12C (stereo partly specified)', 0.0),
  ('COc1ccc(-c2nnc(SCC(=O)Nc3ccc(/C(C)=N\O)cc3)n2-c2ccccc2)cc1OC', 0.0),
  ('O=C(CCl)Nc1ccc2c(Nc3cc(O)ccc3Cl)ncnc2c1', 1.0),
  ('Cc1ccc(Nc2nc(-c3ccc(F)cc3)c(C#N)c(=O)n2C)cc1', 0.0),
  ('Cc1ccc(-c2nc(C#N)c(S(=O)(=O)NCCO)o2)cc1', 0.0),
  ('c1ccc2cc(Cn3c[n+](Cc4ccc5ccccc5c4)c4ccccc43)ccc2c1', 0.0);
